target: KRAS-G12D and SOS1 (Homo sapiens, UniProt P01116, G12D); experiment: Inhibition of KRAS-G12D/SOS1 binding (Cisbio binding kit, 665/615 ratio), Effect Embodiment A; conditions: read-out: GTP-KRAS-G12D:SOS1 IC50
Sequence (P01116 1-188 isoform P01116-2 G12D): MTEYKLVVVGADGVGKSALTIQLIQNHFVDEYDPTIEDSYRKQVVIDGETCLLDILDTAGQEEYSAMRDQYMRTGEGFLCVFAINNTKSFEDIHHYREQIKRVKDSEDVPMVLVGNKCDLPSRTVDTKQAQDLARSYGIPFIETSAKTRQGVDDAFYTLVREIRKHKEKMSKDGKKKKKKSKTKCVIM
Structures can show the parent of a compound that is named as a salt.
Measurement kind: pIC50
Give bare numbers, as −log10 of the molar value.

Use these answered entries as a reference point.
Molecule	Measured on	Measurement kind	Obs value
CCc1cccc2cc(O)cc(-c3c(F)cc4c(N5CC6CCC(C5)N6)nc(OCCCN5C6CCC5COC6)nc4c3F)c12 (single isomer, unassigned) [Compound 271a]	KRAS-G12D and SOS1 (Homo sapiens, UniProt P01116, G12D)	pIC50	8.01
CN(C)C12CC(c3nc(N4CC5CCC(C4)N5)c4cc(Cl)c(-c5cc(O)cc6ccccc56)c(F)c4n3)(C1)C2 (single isomer, unassigned) [Compound 162a, dihydrochloride]	KRAS-G12D and SOS1 (Homo sapiens, UniProt P01116, G12D)	pIC50	6.17

Now for the molecule whose pIC50 we want.
Query: // lookup pIC50 for CCc1c(F)ccc2cc(O)cc(-c3c(F)cc4c(N5CC6CCC(C5)N6)nc(OCCCN5C[C@@H](C)O[C@@H](C)C5)nc4c3F)c12 (single isomer, unassigned) [Compound 250b]
Result: 5.79

###

Counter-ions that a name gives are not always drawn.
Record: pIC50 reported on KRAS_WT and SOS1 (Homo sapiens, UniProt P01116).
Sequence (P01116 1-188 isoform P01116-2): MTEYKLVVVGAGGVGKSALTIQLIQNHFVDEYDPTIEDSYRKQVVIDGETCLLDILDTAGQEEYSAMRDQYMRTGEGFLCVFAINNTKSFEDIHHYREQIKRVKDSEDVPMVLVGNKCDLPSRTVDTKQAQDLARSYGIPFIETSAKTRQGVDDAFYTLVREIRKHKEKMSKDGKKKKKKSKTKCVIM
One number for each entry, as −log10 of the molar value.

Below are some compounds; for each one, tell me its pIC50.
1. Oc1cc(-c2c(Cl)cc3c(N4CC5CCC(C4)N5)nc(OCCCN4C5CCC4COC5)nc3c2F)c2cc(F)ccc2c1 (single isomer, unassigned) [compound 252]
2. CN(C)C1CN(c2nc(N3CC4CCCC3CN4)c3cc(Cl)c(-c4cc(O)cc5ccccc45)c(F)c3n2)C1 (single isomer, unassigned) [Compound 37]
3. CCN(CC)CCCOc1nc(N2CC3CCC(C2)N3)c2cc(Cl)c(-c3cc(O)cc4ccccc34)c(F)c2n1 (single isomer, unassigned) [Compound 53a]
4. Oc1cc(-c2c(Cl)cc3c(N4CC5CCC(C4)N5)nc(OCCN4CCCC(F)C4)nc3c2F)c2ccccc2c1 (single isomer, unassigned) [Compound 267a]
5. C[C@@H]1COC[C@@H](C)N1CCCOc1nc(N2C[C@H]3CC[C@@H](C2)N3)c2cc(Cl)c(-c3cc(O)cc4ccccc34)c(F)c2n1 (single isomer, unassigned) [Compound 164, dihydrochloride]
6. N#Cc1cccc2cc(O)cc(-c3c(F)cc4c(N5CC6CCC(C5)N6)nc(OCCCN5C6CCC5COC6)nc4c3F)c12 (single isomer, unassigned) [Compound 278a]

Result:
[6.38, 5.99, 5.66, 5.20, 5.60, 6.91]

###

biological target: KRAS_WT and SOS1 (Homo sapiens, UniProt P01116); construct: purchased; test: Inhibition of KRAS_WT/SOS1 binding (Cisbio binding kit, 665/615 ratio), Effect Embodiment C; conditions: read-out: GTP-KRAS-WT:SOS1 IC50
pIC50: −log10 of the molar value.
Classification field: MET = pIC50 at or over 6; NOT MET = pIC50 under 6.

Field: example entries. Status: answers known.
Compound	Class assignment
C[C@@H](COc1nc(N2CC3CCC(C2)N3)c2cc(Cl)c(-c3cc(O)cc4ccccc34)c(F)c2n1)CN1C2CC3CC1CC(C2)O3 (single isomer, unassigned) [Compound 230]	MET
CN(C)CCCCCOc1nc(N2CC3CCC(C2)N3)c2cc(Cl)c(-c3cc(O)cc4ccccc34)c(F)c2n1 (single isomer, unassigned) [Compound 98]	NOT MET

Query: Identify whether the reported pIC50 of the following compound is 6 or greater: C[C@@H](COc1nc(N2CC3CCC(C2)N3)c2cc(Cl)c(-c3cc(O)cc4ccccc34)c(F)c2n1)CN1CCOC[C@H]1C (single isomer, unassigned) [Compound 239]
Result: MET

Query: Identify whether the reported pIC50 of the following compound is 6 or greater: CC1OCCN(CCCOc2nc(N3CC4CCC(C3)N4)c3cc(Cl)c(-c4cc(O)cc5ccccc45)c(F)c3n2)C1C (single isomer, unassigned) [Compound 265b]
Result: NOT MET

Query: Identify whether the reported pIC50 of the following compound is 6 or greater: CN(C)CCCNc1nc(N2C[C@H]3CC[C@@H](C2)N3)c2cc(Cl)c(-c3cc(O)cc4ccccc34)c(F)c2n1 (single isomer, unassigned) [Compound 55a]
Result: NOT MET

Origin of the recorded values: patent US20230365563A1
